# test_details: Solid-state stability of PNAC crystal forms (storage; XRPD and HPLC)
# Assay type: physicochemical
# condition_description: 60° C., 24 h
# Description: The third group was kept under the conditions of 25° C. and 60% relative humidity for 2 weeks to obtain a solid sample, and then the three groups of solid samples were respectively evaluated for physical and chemical stability by XRPD and HPLC assay. The purity of main peak was calculated by normalization method.
endpoint_name: crystal form after treatment (XRPD)

O=C([O-])CCCCCCCNC(=O)c1ccccc1O.[K+] [crystal Form III]: crystal Form I
O=C([O-])CCCCCCCNC(=O)c1ccccc1O.[K+] [crystal Form I]: crystal Form I
O=C([O-])CCCCCCCNC(=O)c1ccccc1O.[K+] [crystal Form IV]: crystal Form I
